Target: Mdn1 (Midasin) (Schizosaccharomyces pombe)
Construct: recombinant full-length Mdn1 (hexahistidine-tagged, insect cells)
Sequence (O94248 whole entry): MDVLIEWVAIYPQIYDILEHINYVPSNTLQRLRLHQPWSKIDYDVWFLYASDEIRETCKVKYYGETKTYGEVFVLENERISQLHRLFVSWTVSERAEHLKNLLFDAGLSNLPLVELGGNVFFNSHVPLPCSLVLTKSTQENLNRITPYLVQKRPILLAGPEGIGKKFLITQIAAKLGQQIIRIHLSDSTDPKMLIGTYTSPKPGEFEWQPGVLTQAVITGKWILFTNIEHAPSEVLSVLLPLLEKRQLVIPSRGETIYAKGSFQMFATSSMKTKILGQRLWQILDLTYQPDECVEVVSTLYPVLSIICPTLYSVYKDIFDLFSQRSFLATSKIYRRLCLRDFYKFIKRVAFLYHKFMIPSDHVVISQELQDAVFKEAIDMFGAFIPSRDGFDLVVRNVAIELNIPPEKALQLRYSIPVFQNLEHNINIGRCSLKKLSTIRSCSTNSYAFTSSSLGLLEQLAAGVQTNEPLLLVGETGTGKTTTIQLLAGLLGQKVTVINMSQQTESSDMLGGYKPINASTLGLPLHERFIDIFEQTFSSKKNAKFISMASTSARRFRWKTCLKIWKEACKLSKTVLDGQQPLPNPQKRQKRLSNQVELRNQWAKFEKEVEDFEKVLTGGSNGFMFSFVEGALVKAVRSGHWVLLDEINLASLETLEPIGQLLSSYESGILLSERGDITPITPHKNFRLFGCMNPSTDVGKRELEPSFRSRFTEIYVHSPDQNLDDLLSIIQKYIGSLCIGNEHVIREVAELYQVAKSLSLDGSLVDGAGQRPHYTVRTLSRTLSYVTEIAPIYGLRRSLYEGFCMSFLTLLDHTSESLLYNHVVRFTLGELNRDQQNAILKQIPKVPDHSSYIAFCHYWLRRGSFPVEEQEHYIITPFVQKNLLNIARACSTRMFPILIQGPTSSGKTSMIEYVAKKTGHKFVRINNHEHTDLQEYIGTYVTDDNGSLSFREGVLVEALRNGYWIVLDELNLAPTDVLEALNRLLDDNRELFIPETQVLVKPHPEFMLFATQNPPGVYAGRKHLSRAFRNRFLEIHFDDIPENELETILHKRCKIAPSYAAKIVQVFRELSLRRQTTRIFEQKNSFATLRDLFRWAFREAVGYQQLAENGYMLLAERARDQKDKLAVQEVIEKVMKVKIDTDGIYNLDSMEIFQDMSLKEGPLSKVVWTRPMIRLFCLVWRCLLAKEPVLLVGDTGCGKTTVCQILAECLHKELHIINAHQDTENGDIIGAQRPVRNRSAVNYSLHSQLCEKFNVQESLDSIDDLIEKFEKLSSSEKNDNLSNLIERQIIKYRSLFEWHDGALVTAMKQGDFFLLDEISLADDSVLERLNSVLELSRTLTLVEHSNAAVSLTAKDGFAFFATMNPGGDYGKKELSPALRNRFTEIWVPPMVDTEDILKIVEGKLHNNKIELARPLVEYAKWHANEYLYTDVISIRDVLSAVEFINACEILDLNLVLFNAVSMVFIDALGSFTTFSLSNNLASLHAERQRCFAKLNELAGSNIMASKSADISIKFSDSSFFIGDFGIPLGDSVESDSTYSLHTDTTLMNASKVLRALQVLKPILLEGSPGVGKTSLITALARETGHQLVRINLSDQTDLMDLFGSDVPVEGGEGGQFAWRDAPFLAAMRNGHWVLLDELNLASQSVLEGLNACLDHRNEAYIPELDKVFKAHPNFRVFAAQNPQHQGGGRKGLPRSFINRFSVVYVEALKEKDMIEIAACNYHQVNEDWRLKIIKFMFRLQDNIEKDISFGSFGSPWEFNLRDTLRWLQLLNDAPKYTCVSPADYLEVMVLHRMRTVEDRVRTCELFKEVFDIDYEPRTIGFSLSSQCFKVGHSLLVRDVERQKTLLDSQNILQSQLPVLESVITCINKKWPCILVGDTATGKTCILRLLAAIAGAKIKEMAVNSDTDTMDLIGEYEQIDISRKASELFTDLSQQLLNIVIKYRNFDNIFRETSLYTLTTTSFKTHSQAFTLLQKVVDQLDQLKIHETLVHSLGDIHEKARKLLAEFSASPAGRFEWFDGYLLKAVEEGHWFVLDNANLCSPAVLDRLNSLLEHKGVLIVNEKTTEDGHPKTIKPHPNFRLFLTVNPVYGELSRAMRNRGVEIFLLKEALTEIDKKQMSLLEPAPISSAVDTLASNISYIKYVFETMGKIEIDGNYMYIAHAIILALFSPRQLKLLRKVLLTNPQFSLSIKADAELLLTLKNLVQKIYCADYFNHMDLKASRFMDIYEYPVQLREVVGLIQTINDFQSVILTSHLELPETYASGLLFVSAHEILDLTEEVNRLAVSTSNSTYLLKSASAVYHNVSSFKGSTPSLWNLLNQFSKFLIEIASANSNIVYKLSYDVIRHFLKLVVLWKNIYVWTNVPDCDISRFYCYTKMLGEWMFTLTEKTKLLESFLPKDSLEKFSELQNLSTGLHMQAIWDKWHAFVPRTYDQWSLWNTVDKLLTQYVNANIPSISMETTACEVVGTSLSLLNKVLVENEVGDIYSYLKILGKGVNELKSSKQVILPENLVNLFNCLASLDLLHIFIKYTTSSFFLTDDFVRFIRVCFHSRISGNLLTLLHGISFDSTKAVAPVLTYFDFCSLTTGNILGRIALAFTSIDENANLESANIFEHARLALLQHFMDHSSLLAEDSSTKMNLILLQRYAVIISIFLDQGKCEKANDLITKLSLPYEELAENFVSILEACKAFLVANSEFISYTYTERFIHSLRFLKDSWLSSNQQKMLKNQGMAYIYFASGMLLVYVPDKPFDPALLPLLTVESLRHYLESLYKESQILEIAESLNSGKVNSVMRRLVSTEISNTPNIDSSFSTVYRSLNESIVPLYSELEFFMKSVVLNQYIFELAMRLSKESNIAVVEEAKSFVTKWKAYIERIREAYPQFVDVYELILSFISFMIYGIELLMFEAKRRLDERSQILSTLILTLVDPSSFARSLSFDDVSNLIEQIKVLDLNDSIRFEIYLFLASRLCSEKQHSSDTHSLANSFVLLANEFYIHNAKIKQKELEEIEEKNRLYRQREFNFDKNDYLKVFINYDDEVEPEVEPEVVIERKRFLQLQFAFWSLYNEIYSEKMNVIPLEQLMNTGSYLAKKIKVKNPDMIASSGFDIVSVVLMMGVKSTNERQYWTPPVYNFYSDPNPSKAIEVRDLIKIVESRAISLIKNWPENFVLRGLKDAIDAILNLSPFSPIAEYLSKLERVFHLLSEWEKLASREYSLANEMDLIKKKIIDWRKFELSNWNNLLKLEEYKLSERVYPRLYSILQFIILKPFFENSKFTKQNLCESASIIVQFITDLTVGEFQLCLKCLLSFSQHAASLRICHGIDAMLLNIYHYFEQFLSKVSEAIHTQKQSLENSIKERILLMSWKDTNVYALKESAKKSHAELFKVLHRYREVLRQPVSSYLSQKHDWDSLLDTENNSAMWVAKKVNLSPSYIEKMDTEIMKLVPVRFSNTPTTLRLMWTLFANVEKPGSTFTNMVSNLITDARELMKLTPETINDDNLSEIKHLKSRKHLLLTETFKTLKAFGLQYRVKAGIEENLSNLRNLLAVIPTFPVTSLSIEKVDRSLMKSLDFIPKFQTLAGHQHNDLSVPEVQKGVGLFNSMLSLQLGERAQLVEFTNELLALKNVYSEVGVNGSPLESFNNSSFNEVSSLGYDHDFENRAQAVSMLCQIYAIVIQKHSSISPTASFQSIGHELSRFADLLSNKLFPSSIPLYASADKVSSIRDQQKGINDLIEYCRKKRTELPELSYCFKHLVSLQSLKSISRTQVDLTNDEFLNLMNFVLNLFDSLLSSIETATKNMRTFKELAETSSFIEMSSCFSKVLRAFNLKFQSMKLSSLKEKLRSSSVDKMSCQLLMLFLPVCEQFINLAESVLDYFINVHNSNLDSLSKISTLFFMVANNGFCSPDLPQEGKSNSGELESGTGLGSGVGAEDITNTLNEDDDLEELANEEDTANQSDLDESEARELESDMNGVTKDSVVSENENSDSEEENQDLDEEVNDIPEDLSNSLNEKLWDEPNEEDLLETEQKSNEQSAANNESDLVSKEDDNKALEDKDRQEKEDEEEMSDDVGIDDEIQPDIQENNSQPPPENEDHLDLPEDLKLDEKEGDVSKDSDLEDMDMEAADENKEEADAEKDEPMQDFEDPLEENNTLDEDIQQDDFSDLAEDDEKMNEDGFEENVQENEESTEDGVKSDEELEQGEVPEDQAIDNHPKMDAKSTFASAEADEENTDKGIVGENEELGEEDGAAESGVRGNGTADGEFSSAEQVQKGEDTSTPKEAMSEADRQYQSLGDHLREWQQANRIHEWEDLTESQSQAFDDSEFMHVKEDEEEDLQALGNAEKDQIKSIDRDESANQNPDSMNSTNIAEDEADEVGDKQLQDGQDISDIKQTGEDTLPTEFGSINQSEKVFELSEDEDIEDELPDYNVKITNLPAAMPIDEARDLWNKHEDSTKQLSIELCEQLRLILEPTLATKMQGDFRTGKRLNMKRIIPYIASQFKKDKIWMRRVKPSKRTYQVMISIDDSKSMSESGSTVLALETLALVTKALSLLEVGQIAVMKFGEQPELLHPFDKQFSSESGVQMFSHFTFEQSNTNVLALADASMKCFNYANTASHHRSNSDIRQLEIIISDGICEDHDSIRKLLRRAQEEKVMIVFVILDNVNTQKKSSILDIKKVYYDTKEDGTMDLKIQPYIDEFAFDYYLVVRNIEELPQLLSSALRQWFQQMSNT
Assay: NADH-coupled steady-state ATPase assay, dose-response (saturates at […] inhibition)
MEASURE NAME: EC50

### Prompt # input compound: "C=C(C)CSc1nnc2c(n1)[nH]c1cc(Br)ccc12" ; wanted: its EC50
### Response ~300 nM
